method-description: Antagonist activity at rat vasopressin receptor
Numbered stars: 1 amine (or outer) side, 2 acyl side, 3 side chain; on linkers, the order of the positions; unused ones are H or OH. Bridge positions count the residues as written; N and C are the ends. Peptide text beside a SMILES is read from it. X2 = CC(C)(CC(=O)[*:1])S[*:2]
assay-readout: pA2

# compound, assay-readout, result-value
records = [
    ("CC[C@H](C)[C@@H]1NC(=O)[C@H](Cc2ccc(OC)cc2)NC(=O)CC(C)(C)SSC[C@@H](C(=O)N2CCC[C@H]2C(=O)N[C@@H](CC(C)C)C(=O)NCC(N)=O)NC(=O)[C@H](CC(N)=O)NC(=O)[C@H]([C@@H](C)O)NC1=O (Y(Me)ITNCPLG-NH2; linker N-5 via X2)", "pA2", 7.32),
]

###

target-desc: Oxytocin receptor (Rattus norvegicus, UniProt P70536)
Sequence (P70536 whole entry): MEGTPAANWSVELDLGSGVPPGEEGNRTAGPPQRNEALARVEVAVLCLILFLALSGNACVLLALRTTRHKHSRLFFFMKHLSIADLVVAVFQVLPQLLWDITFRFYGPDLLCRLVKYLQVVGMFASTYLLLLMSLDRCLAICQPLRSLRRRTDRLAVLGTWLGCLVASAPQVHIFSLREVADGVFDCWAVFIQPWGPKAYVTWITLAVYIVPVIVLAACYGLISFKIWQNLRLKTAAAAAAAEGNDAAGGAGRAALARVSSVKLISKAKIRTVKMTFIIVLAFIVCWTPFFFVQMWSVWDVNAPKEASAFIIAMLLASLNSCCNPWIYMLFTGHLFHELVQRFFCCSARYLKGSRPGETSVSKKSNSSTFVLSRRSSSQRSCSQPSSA
method-description: Antagonist activity at oxytocin receptor in rat uterus pretreated with diethylstilbestrol compound treated 1 min prior to oxytocin addition
Format: tissue-based
settings: read-out: pA2 (converted)
Numbered stars: 1 amine (or outer) side, 2 acyl side, 3 side chain; on linkers, the order of the positions; unused ones are H or OH. Bridge positions count the residues as written; N and C are the ends. Square brackets hold non-standard residues; d marks the D form. Peptide text beside a SMILES is read from it. * marks the point of attachment. X1 = O=C(CC1(S[*:2])CCCCC1)[*:1]; X3 = CCC(CC)(CC(=O)[*:1])S[*:2]; X2 = CC(C)(CC(=O)[*:1])S[*:2]; X4 = NC(=O)NC(=O)CN*; Mpa = O=C(O)CCS

# compound, units-of-measure, Kb
data = [
    ("COc1ccc(C[C@@H]2NC(=O)CC(C)(C)SSC[C@@H](C(=O)N3CCC[C@H]3C(=O)N[C@@H](CCCN=C(N)N)C(=O)NCC(N)=O)NC(=O)[C@H](CC(N)=O)NC(=O)[C@H](CCC(N)=O)NC(=O)[C@H](Cc3ccccc3)NC2=O)cc1 (Y(Me)FQNCPRG-NH2; linker N-5 via X2)", "nM", 24.5),
    ("CC[C@H](C)[C@@H]1NC(=O)[C@H](Cc2ccc(OC)cc2)NC(=O)CC(C)(C)SSC[C@@H](C(=O)N2CCC[C@H]2C(=O)N[C@@H](CC(C)C)C(=O)NCC(N)=O)NC(=O)[C@H](CC(N)=O)NC(=O)[C@H](CCC(N)=O)NC1=O (Y(Me)IQNCPLG-NH2; linker N-5 via X2)", "nM", 17.4),
    ("CC[C@H](C)[C@@H]1NC(=O)[C@H](Cc2ccc(O)cc2)NC(=O)CC(C)(C)SSC[C@@H](C(=O)N2CCC[C@H]2C(=O)N[C@@H](CC(C)C)C(=O)NCC(N)=O)NC(=O)[C@H](CC(N)=O)NC(=O)[C@H]([C@@H](C)O)NC1=O (YITNCPLG-NH2; linker N-5 via X2)", "nM", 30.2),
    ("CC[C@H](C)[C@@H]1NC(=O)[C@H](Cc2ccc(OC)cc2)NC(=O)CC(C)(C)SSC[C@@H](C(=O)N2CCC[C@H]2C(=O)N[C@@H](CC(C)C)C(=O)NCC(N)=O)NC(=O)[C@H](CC(N)=O)NC(=O)[C@H]([C@@H](C)O)NC1=O (Y(Me)ITNCPLG-NH2; linker N-5 via X2)", "nM", 22.9),
    ("CC[C@H](C)[C@@H]1NC(=O)[C@H](Cc2ccc(O)cc2)NC(=O)CC(CC)(CC)SSC[C@@H](C(=O)N2CCC[C@H]2C(=O)N[C@@H](CC(C)C)C(=O)NCC(N)=O)NC(=O)[C@H](CC(N)=O)NC(=O)[C@H](CCC(N)=O)NC1=O (YIQNCPLG-NH2; linker N-5 via X3)", "nM", 28.2),
    ("CC[C@H](C)[C@@H]1NC(=O)[C@H](Cc2ccc(O)cc2)NC(=O)CC2(CCCCC2)SSC[C@@H](C(=O)N2CCC[C@H]2C(=O)N[C@@H](CC(C)C)C(=O)NCC(N)=O)NC(=O)[C@H](CC(N)=O)NC(=O)[C@H]([C@@H](C)O)NC1=O (YITNCPLG-NH2; linker N-5 via X1)", "nM", 12.3),
    ("CC[C@H](C)[C@@H]1NC(=O)[C@H](Cc2ccc(O)cc2)NC(=O)CC(CC)(CC)SSC[C@@H](C(=O)N2CCC[C@H]2C(=O)N[C@@H](CC(C)C)C(=O)NCC(N)=O)NC(=O)[C@H](CC(N)=O)NC(=O)[C@H]([C@@H](C)O)NC1=O (YITNCPLG-NH2; linker N-5 via X3)", "nM", 19.1),
    ("CC[C@H](C)[C@@H]1NC(=O)[C@H](Cc2ccc(OC)cc2)NC(=O)CCSSC[C@@H](C(=O)N2CCC[C@H]2C(=O)N[C@@H](CC(C)C)C(=O)NCC(=O)NC(N)=O)NC(=O)[C@H](CC(N)=O)NC(=O)[C@H](CCC(N)=O)NC1=O ([Mpa]Y(Me)IQNCPL-X4; disulfide 1-6)", "nM", 126),
    ("CC[C@H](C)[C@@H]1NC(=O)[C@H](Cc2ccc(O)cc2)NC(=O)CC2(CCCCC2)SSC[C@@H](C(=O)N2CCC[C@H]2C(=O)N[C@@H](CC(C)C)C(=O)NCC(N)=O)NC(=O)[C@H](CC(N)=O)NC(=O)[C@H](CCC(N)=O)NC1=O (YIQNCPLG-NH2; linker N-5 via X1)", "nM", 24.5),
]
